- Target Entity: Cytochrome P450 11B2, mitochondrial (Homo sapiens, UniProt P19099)
- Sequence (P19099 whole entry): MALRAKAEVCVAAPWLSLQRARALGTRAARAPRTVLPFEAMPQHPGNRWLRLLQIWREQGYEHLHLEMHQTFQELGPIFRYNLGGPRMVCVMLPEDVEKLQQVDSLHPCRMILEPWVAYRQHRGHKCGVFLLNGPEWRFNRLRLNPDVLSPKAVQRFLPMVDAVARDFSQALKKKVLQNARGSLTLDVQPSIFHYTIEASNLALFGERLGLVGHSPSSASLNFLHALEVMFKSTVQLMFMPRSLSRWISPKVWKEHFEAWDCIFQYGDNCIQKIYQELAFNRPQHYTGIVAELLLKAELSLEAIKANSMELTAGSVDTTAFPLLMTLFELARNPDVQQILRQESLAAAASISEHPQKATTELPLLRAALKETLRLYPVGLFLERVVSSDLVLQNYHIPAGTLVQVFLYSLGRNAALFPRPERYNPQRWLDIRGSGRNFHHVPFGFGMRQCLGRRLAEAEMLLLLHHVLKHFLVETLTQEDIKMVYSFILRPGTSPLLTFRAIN
- Procedure Text: Inhibition of human CYP11B2 expressed in V79 MZh cells using [14C]-deoxycorticosterone substrate incubated for 6 hrs by HPTLC method
Readout Label: pIC50
Note on units: pIC50 is unitless, being -log10 of a concentration expressed in mol/L.

{"Smiles Entry": "Cc1c(F)cncc1-c1cc(F)c2c(c1)CCc1nncn1-2", "Target Entity": "Cytochrome P450 11B2, mitochondrial (Homo sapiens, UniProt P19099)", "Readout Label": "pIC50", "Reported": 7.37}
{"Smiles Entry": "Cc1c(F)cncc1-c1cc(F)c2c(c1)CCc1nnc(C)n1-2", "Target Entity": "Cytochrome P450 11B2, mitochondrial (Homo sapiens, UniProt P19099)", "Readout Label": "pIC50", "Reported": 7.71}
{"Smiles Entry": "Cc1ccncc1-c1cc(F)c2c(c1)CCc1nnc(C)n1-2", "Target Entity": "Cytochrome P450 11B2, mitochondrial (Homo sapiens, UniProt P19099)", "Readout Label": "pIC50", "Reported": 8.38}

Provide measured pIC50 value, entry: "Fc1cncc(-c2cc(F)c3c(c2)CCc2nncn2-3)c1"
6.47

* * *

- Procedure Text: Half life in human hepatic microsomes at 1 uM in presence of NADPH system by LC-MS/MS method
- Format: ADME, Microsome
- Experimental Setup: liver microsomes
Reported half-life at 1 µM values are given for each entry in this list.

{"Smiles Entry": "Cc1nnc2n1-c1c(F)cc(-c3cncc(F)c3)cc1CC2", "Readout Label": "half-life at 1 µM", "Reported": "> 120 min"}
{"Smiles Entry": "Cc1ccncc1-c1cc(F)c2c(c1)CCc1nnc(C)n1-2", "Readout Label": "half-life at 1 µM", "Reported": "> 120 min"}

Provide measured half-life at 1 µM value, entry: "Cc1nnc2n1-c1c(F)cc(-c3cccnc3)cc1CC2"
> 120 min

* * *

Reported pIC50 values are given for each entry in this list.
- Target Entity: Cytochrome P450 11B2, mitochondrial (Homo sapiens, UniProt P19099)
- Procedure Text: Inhibition of human CYP11B2 expressed in V79 MZh cells using [14C]-deoxycorticosterone substrate incubated for 6 hrs by HPTLC method
Note on units: pIC50 is unitless, being -log10 of a concentration expressed in mol/L.

// known answers, use as guide
{"Smiles Entry": "Fc1cc2c(cc1-c1cccnc1)CCc1nnc(Cc3ccccc3)n1-2", "Target Entity": "Cytochrome P450 11B2, mitochondrial (Homo sapiens, UniProt P19099)", "pIC50": 5.36}
{"Smiles Entry": "CCc1nnc2n1-c1cc(F)c(-c3cccnc3)cc1CC2", "Target Entity": "Cytochrome P450 11B2, mitochondrial (Homo sapiens, UniProt P19099)", "pIC50": 6.01}

Consider now this further molecule.
Provide measured pIC50 value, entry: "Cc1nnc2n1-c1c(F)cc(-c3cncc(C#N)c3)cc1CC2"
5.93
